tested on: Primary fibroblasts cultured from the lungs of healthy donors; assay: Fibroblast-to-myofibroblast transition (FMT), aSMA induction by TGFb, healthy donor fibroblasts; format: cell-based, human; conditions: Homo sapiens, Fibroblast, 72 h, donor FB2382, Healthy, 1.25 ng/mL TGFb, read-out: LogM IC50 aSMA (converted)
Give measured IC50 for each item. Keep answers brief.
Give bare numbers, in nM.

>>> measured_result("N#Cc1cnc(Nc2cc(NC[C@H]3CNCCO3)c(C(F)(F)F)cn2)cn1")
3160
>>> measured_result("COc1cccc(OCCCN)c1-c1cc(Nc2cnc(C#N)cn2)n[nH]1")
794
>>> measured_result("NC(=O)Nc1cc(-c2cccc(F)c2)sc1C(=O)N[C@H]1CCCNC1")
631

Fill in IC50 for each of the 2 compounds listed.
1. Cn1cc(-c2cnn3c(N)c(Br)c([C@@H]4CCCNC4)nc23)cn1
2. COc1cc2nc(-c3cc(F)ccc3O)nc(N[C@@H]3CNC[C@H]3C(C)(C)O)c2cc1OC

[3160, 501]
